- TARGET_OF_ASSAY: T1, biotinylated IL-22 with an N-terminal His/FLAG tag (bio.IL-22H/F) (human, UniProt Q9GZX6 34-179, biotinylated (site not stated))
- T1 construct: not shown: N-terminal His/FLAG tag
- T1 sequence: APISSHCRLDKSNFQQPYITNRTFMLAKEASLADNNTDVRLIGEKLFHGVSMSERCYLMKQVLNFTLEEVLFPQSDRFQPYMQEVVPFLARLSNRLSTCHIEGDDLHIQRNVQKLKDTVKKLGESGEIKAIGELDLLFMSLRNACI
- PROTOCOL_SUMMARY: IL-22 receptor complex inhibition assay (bio.IL-22H/F binding to IL-22 receptor complex, DELFIA), scFv
MEASUREMENT_NAME: IC50 (nM)

1) GIL01 scFv (non-germlined parent) (scFv, also called GIL 1) scFv: EVQLVESGGGLVTPGGSLRLSCAASGFTFSDYYMSWIRQAPGRGLEWVSAISGSGGSTYYADSVKGRITISRDNAKNSLYLQMSSLRSEDTAVYYCARGLWVWDPLDYWGRGTLVTVSSGGGGSGGGGSGGGGSDIQMTQSPSTLSASIGDRVTITCRASEGIYHWLAWYQQKPGKAPKLLIYKASSLASGAPSRFSGSGSGTDFTLTISSLQPDDFATYYCQQYSNYPLTFGGGTKLEIKRAAA: 104
2) GIL68 scFv (non-germlined parent) (scFv) scFv: EVQLVQSGAEVKKPGASVKVSCQASGYTFSDYYIHWVRQTPGQGFEWMGWVNPDTGGTRYAQKFQGWVTMTRDMSNTTAYMELPRLRDDDTAVYYCARDLTGFDPFDIWGQGTLVTVSSGGGGSGGGGSGGGGSAQSVLTQPPSVSVAPGKTATITCGGNNFRNKRVHWYQQRPGQAPVLVIYYDSDRPSGIPERFSGSRSGNTATLTISRVEAGDEADFYCQVWDSSTDRPLFGGGTKLTVLGAAA: 7
3) GIL60 scFv (non-germlined parent) (scFv) scFv: EVQLVESGGGVVRPGGSLRLSCAASGFTFDDYGMNWVRQAPGKGLEWVSGVNGNGGTRDYAASVKGRFTISRDNAKNSLYLQMNSLRAEDTALYYCARGWYSGSFYYFGYWGRGTLVTVSSGGGGSGGGGSGGGGSAQAVLTQPSSVSGSPGQSITISCTGASGDVGAYNFVSWYQQHPGKTPKLIIYDVNKRPSGVSNRFSGSKSGNTASLTISGLQAEDESDYYCSSYTSTFSVVFGGGTKVTVLGAA: 43
